From: patent US9181214B2

compounds and their reported melting point

CC(C)OC(=O)N1CCC(c2nc3cc(-c4ccc(C(N)=O)cn4)ccc3o2)CC1    227 to 230 °C

For record `CC(C)(C)OC(=O)N1CCC(c2ccc3nc(-c4ccc(C(F)(F)F)cc4)oc3c2)CC1` the listed melting point is 174 to 179 °C

For record `CC(C)OC(=O)N1CCC(c2nc3ccc(-c4ccc(C(N)=O)c(F)c4)cc3o2)CC1` the listed melting point is 178 to 181 °C

For record `CNS(=O)(=O)c1ccc(-c2ccc3oc(C4CCN(C(=O)OC(C)C)CC4)nc3c2)cc1` the listed melting point is 179 to 181 °C

====

Target: human GPR119 (Homo sapiens, UniProt Q8TDV5)
Construct: expressed in transfected cells; host or cells: HEK293 (transient transfection, Lipofectamine 2000)
Sequence (Q8TDV5 whole entry): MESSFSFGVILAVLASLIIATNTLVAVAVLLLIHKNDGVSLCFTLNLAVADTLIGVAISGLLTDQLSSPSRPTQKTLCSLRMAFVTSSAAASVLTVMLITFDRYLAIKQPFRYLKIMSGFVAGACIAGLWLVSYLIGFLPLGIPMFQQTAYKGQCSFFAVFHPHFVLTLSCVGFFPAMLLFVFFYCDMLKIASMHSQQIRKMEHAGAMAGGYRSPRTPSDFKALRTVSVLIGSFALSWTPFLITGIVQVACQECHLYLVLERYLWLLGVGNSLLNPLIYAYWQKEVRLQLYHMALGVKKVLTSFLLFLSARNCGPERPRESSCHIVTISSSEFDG
Test: In vitro cyclic AMP assay (Cisbio HTRF) in HEK293 cells transfected with human GPR119
Type: cell-based
Conditions: 1 h, % Induction @ 10 μM, cAMP, Table I
Measured quantity: activation at 10 µM (%)

Please review the following examples before continuing.
CC(C)OC(=O)N1CCC(c2nc3cc(-c4ccc(-n5cnnn5)c(F)c4)ccc3o2)CC1    36.4
CC(C)OC(=O)N1CCC(c2nc3cc(-c4ccc(C(N)=O)cc4F)ccc3o2)CC1    6.56
CS(=O)(=O)N1CCC(c2nc3cc(-c4ccc(-n5cnnn5)cc4F)ccc3o2)CC1    0.28
CC(C)(C)OC(=O)N1CCC(c2nc3cc(-c4ccc(C(F)(F)F)cc4)ccc3o2)CC1    68.2
Fc1cc(-n2cnnn2)ccc1-c1ccc2oc(C3CCNCC3)nc2c1    74

(1) CC(C)OC(=O)N1CCC(c2nc3cc(-c4ccc(C(N)=O)cn4)ccc3o2)CC1
(2) CC(C)(C)OC(=O)N1CCC(c2nc3cc(-c4ccc(-c5nnn[nH]5)c(F)c4)ccc3o2)CC1
(3) CC(C)(C)OC(=O)N1CCC(c2nc3cc(-c4ccc(C(N)=O)c(F)c4)ccc3o2)CC1
Order the entries by their reported activation at 10 µM, beginning at the minimum. Give the labels in the order specified.
1, 2, 3
(1: 4.83%, 2: 37.2%, 3: 59%)

====

Biological target: Mouse GPR119 (Mus musculus, UniProt Q7TQP3)
Sequence (Q7TQP3 1-335): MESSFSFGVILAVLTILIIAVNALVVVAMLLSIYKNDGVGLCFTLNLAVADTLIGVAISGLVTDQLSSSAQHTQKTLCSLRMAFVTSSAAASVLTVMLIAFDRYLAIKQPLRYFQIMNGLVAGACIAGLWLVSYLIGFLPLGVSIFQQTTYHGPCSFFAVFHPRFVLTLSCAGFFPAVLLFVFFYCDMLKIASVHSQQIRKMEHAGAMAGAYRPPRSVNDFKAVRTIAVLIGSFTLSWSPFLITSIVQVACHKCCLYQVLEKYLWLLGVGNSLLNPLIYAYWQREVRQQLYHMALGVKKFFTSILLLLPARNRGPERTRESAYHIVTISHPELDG
Experiment: In vitro mouse GPR 119 cyclic AMP assay in stably transfected HEK293 cells
Conditions: cAMP, HEK293 cells stably transfected with mouse GPR119
pEC50: −log10 of the molar value.
Measured quantity: pEC50

For record `CC(C)(C)OC(=O)N1CCC(c2nc3cc(-c4ccc(-n5cnnn5)cc4F)ccc3o2)CC1` the listed pEC50 is > 7.60
